Exercise: state measured growth inhibition for each of the compounds provided.
- assay text: NCI Yeast Anticancer Drug Screen. Data for the bub3 strain (AID 167)
- experimental conditions: S. cerevisiae bub3 mutant strain, at 50.0 µM, stronger effect = higher value
This is part of a sample that, as a whole, favours compounds with a hit. Of some 79,000 tested, about 15% had one in any assay.
Give bare numbers, in %.

The cases that follow already have their growth inhibition on record.
CCC(C(c1ccc(Cl)cc1)c1ccc(Cl)c(Cl)c1)[N+](=O)[O-] (stereo not drawn) | 47.5
CC(C)c1ccc(/C=C(\NC(=O)c2ccccc2)c2nc3ccccc3[nH]2)cc1 | 88
CCc1ccc(C)nc1 | 98.7
CC(SC1=CC(=O)c2c(Cl)ccc(O)c2C1=O)C(=O)O (stereo not drawn) | 6
Cc1cc(Cl)c2c(c1)C(=O)/C(=C/c1ccc(Cl)cc1)O2 | 88.7
O=C(/C=C(\C(=O)c1ccccc1)N(/C(=C/C(=O)c1ccccc1)C(=O)c1ccccc1)c1ccccc1)c1ccccc1 | 88.4
COc1ccc(Cl)c(-c2cc(OC)c(N=N/C(=N/Nc3ccc([N+](=O)[O-])cc3)c3ccc([N+](=O)[O-])cc3)cc2Cl)c1 | 44.5
COc1cccc2c1C(=O)c1c(O)c3c(c(O)c1C2=O)C[C@@](O)(C(O)CO)C[C@@H]3OC1CC(N(Cc2ccccc2)Cc2ccccc2)C(O)C(C)O1 (stereo partly drawn) | 62
CC(C)C(CC(C)(C)C)OC(=O)Nc1cccc2ccccc12 (stereo not drawn) | 61.1
COc1cc(NCC(C#N)C#N)ccc1N=Nc1ccc(Cl)cc1 | 79.5

Record growth inhibition for all entries; do not skip any.
1. COC(=O)c1ccc(NCC2=C(Br)C(=O)C=CC2=O)cc1Cl
2. COc1ccc(C2COc3c(ccc(O)c3O)C2)cc1 (stereo not drawn)
3. CC(=O)N1c2ccccc2Sc2ccc3ccc(C(=O)CCl)cc3c21
4. O=S(=O)(c1cc(Br)ccc1O)c1cc(Br)ccc1O
5. CC(=O)OC1=CC(n2cc(F)c(=O)[nH]c2=O)OC(C)C1=O (stereo not drawn)
6. CCCCCCCCCCNC(=O)C[n+]1cccc(C(=O)Nc2ccccc2)c1

Result:
90.8
81.4
89.2
99.7
62.1
99.6

Record growth inhibition for all entries; do not skip any.
1. O=C1c2ccccc2S(=O)(=O)CC1Br (stereo not drawn)
2. Clc1ccc(CN2COc3c(cc(Cl)c4cccnc34)C2)c(Cl)c1
3. Cc1nc(Nc2ccc(Cl)cc2)sc1C(=O)NNC(=O)C(=O)NN

Result:
1. 99.4
2. 3
3. 41.1

Record growth inhibition for all entries; do not skip any.
1. O=C(O)c1c2c(c(O)c3c1CN(C1CCCCC1)CO3)OCN(C1CCCCC1)C2
2. CC12C(=O)N(CC(=O)O)C(=O)C1(C)C1c3ccccc3C2c2ccc3ccccc3c21 (stereo not drawn)
3. COc1ccc2c(c1)n([O-])c1cc(C#N)ccc1[n+]2=O

Result:
32.1
95.6
44.9

This collection of values is drawn from PubChem BioAssay (NCI).
